These measurements were taken from PubChem BioAssay (NCI).

Listing: growth inhibition of selected compounds
TEST_DETAILS: NCI Yeast Anticancer Drug Screen. Data for the mlh1 rad18 strain (AID 175)
TEST_CONDITIONS: S. cerevisiae mlh1 rad18 strain growth inhibition; at 5.0 µM (retest, dose inferred, filed as 0.5); hits give high values
Compounds without any hit were thinned out: in the full panel of roughly 79,000, 15% have a hit.
Please reply with the bare figure in % and do not write the unit itself.

Examples with their reported growth inhibition follow.
- COMPOUND: "Clc1ccc(-c2cc(-c3cc(-c4ccc(Cl)c(Cl)c4)n[nH]3)[nH]n2)cc1Cl"
  PROPERTY_LABEL: "growth inhibition"
  RESULT: 19
- COMPOUND: "O=C1NC(=O)N(c2ccc(Cl)c(Cl)c2)C1=O"
  PROPERTY_LABEL: "growth inhibition"
  RESULT: -4
- COMPOUND: "O=C(CN(Cc1ccccc1)Cc1ccccc1)c1ccccc1"
  PROPERTY_LABEL: "growth inhibition"
  RESULT: -1

Requested read-out: growth inhibition. Entry: Cc1c(Cl)nc(-c2ccccc2)nc1C(=O)CCl 65

Report growth inhibition for CC(C(O)c1ccccc1)C(O)(C(F)(F)F)C(F)(F)F (stereo not drawn) please. 18

Field request: growth inhibition | item: CC(C)OC(=O)c1ccc(NCC2=CC(=O)C=CC2=O)cc1Cl 46

Find the recorded growth inhibition belonging to O=C(O)C(Br)C(Br)c1ccccc1[N+](=O)[O-] (stereo not drawn) and report it. 11

Would you kindly share the measured growth inhibition for C=C(c1ccccc1)[N+](=O)[O-] ? 67

---

Each item that follows carries a reported growth inhibition.
TEST_DETAILS: NCI Yeast Anticancer Drug Screen. Data for the mlh1 rad18 strain (AID 175)
TEST_CONDITIONS: S. cerevisiae mlh1 rad18 strain growth inhibition; at 5.0 µM (retest, dose inferred, filed as 0.5); hits give high values
This is part of a sample that, as a whole, favours compounds with a hit. Of some 79,000 tested, about 15% had one in any assay.
// units = %; emit number, no label

- MOLECULE: "CCCCCCCCCCCCCCCCCCn1[se]c2ccccc2c1=O"
  UNIT: "%"
  growth inhibition: -1
- MOLECULE: "CCCCNCCCCCCCCCCCl"
  UNIT: "%"
  growth inhibition: 84

Moving on to the next molecule.
# query: growth inhibition of entry O=C(O)CCSCc1cc(C(=O)Nc2ccc(/C=C/c3ccc(NC(=O)c4cc(CSCCC(=O)O)c5cccnc5c4O)cc3S(=O)(=O)O)c(S(=O)(=O)O)c2)c(O)c2ncccc12 52

---

TEST_DETAILS: NCI Yeast Anticancer Drug Screen. Data for the mlh1 rad18 strain (AID 175)
TEST_CONDITIONS: S. cerevisiae mlh1 rad18 strain growth inhibition; at 50.0 µM; hits give high values
This is part of a sample that, as a whole, favours compounds with a hit. Of some 79,000 tested, about 15% had one in any assay.
# maps each entry to its growth inhibition
Use % as the unit, but write only the number.

Example cases with answers are listed next.
- MOLECULE: "COC(=O)c1ccccc1N=NN(C)CC1OC2OC(C)(C)OC2C1OC (stereo not given)"
  UNIT: "%"
  growth inhibition: 88
- MOLECULE: "COc1ccc(C2CC(CO)ON2c2ccccc2)cc1 (stereo not given)"
  UNIT: "%"
  growth inhibition: 98.8

Look up growth inhibition for this molecule: c1ccc2c(c1)C[n+]1ccc3ccccc3c1-c1c3ccccc3cc[n+]1C2 65.8

May I ask what growth inhibition has been recorded for O=[N+]([O-])c1ccc(-[n+]2ccc3ccccc3c2)c([N+](=O)[O-])c1 ? 81.6

Return reported growth inhibition; argument: Cc1ccc(-c2c(C#N)c(-c3ccccc3)n(NS(=O)(=O)c3ccc(C)cc3)c(=O)c2C#N)cc1 77.2

If you can, please state the reported growth inhibition value of C[N+](C)(C)CCC(=O)c1ccco1 . 99.2

Record request: growth inhibition value, item COc1ccc(C2SCC(=O)N2c2nncs2)cc1 (stereo not given) 13.8

---

TEST_DETAILS: NCI Yeast Anticancer Drug Screen. Data for the cln2 rad14 strain (AID 165);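 also: 0% = growth equal to vehicle treated cultures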
TEST_CONDITIONS: S. cerevisiae cln2 rad14 strain, at 50.0 µM, hits give high values
Compounds without any hit were thinned out: in the full panel of roughly 79,000, 15% have a hit.
Values of growth inhibition greater than or equal to 60% map to YES; values below map to NO.

See these solved cases before continuing.
- COMPOUND: "CC(C)CC(NC(=O)COc1c(Cl)cc(Cl)c(Cl)c1Cl)C(=O)O (stereo not drawn)"
  DISCRETE_LABEL: "NO"
- COMPOUND: "COc1cc(/C=C2/SC(=S)NC2=O)cc(OC)c1O"
  DISCRETE_LABEL: "NO"
- COMPOUND: "O=C(/C=C\\c1cc(Br)ccc1O)/C=C/c1cc(Br)ccc1O"
  DISCRETE_LABEL: "NO"
- COMPOUND: "CCC(=O)N1c2ccccc2CC1c1c[nH]c2ccccc12 (stereo not drawn)"
  DISCRETE_LABEL: "YES"
- COMPOUND: "CN(C)c1cccc(F)c1C(=O)NC(=O)Nc1ccc(Cl)cc1"
  DISCRETE_LABEL: "YES"

# check: growth inhibition of O=Cc1cc(O)ccc1Br is greater than or equal to 60% YES

Decide: is the reported value of growth inhibition for CCCCN(CCC=C1c2ccccc2Oc2ccccc21)CCCC equal to or greater than 60%? YES

In plain terms: is recorded growth inhibition at least 60% for CCOC1(OCC)Oc2c(Cl)c(Cl)c(Cl)c(Cl)c2OC1(OCC)OCC ? YES

---

Entries and their growth inhibition values follow.
TEST_DETAILS: NCI Yeast Anticancer Drug Screen. Data for the mlh1 rad18 strain (AID 175)
TEST_CONDITIONS: S. cerevisiae mlh1 rad18 strain growth inhibition; at 50.0 µM; hits give high values
Experimental: Growth inhibition of yeast strains with defined genetic alterations is measured as a screen for potential anti-cancer activity. Selected strains with alterations in DNA damage repair or cell cycle control were exposed to compounds and growth inhibition was measured relative to vehicle treated controls. The strain used in this assay is mlh1 rad18
This is part of a sample that, as a whole, favours compounds with a hit. Of some 79,000 tested, about 15% had one in any assay.
Express your answer in %, writing the number without its unit.

Answered examples (5):
- COMPOUND: "C/C(=N\\NC(=S)N(C)CCN(C)C(=S)N/N=C(\\C)c1ccccn1)c1ccccn1"
  RESULT: 96.7
- COMPOUND: "O=S(=O)(O)c1ccc(O)c2cc(Nc3ccccc3)ccc12"
  RESULT: 25.5
- COMPOUND: "CCOC(=O)C(C(=O)OCC)C1(c2ccccc2)OC(=O)c2ccccc21 (stereo unspecified)"
  RESULT: -8.55
- COMPOUND: "CN(C)c1nc(N(C)C)oc(=[N+](C)C)n1"
  RESULT: 30.4
- COMPOUND: "OC1C2COc3nc4ccccc4n3C(O2)C1O (stereo unspecified)"
  RESULT: -7.05

// switching to the query compound
Looking for the measured growth inhibition of CCOC(=O)[C@]12CCC[C@@]1(O)NC(=O)c1cnccc12 , can you help? 97.3

---

TEST_DETAILS: NCI Yeast Anticancer Drug Screen. Data for the sgs1 mgt1 strain (AID 161);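 also: 0% = growth of cultures given vehicle only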
TEST_CONDITIONS: S. cerevisiae sgs1 mgt1 strain, at 50.0 µM (retest, dose inferred, filed as 5.0), hits give high values
Compounds without any hit were thinned out: in the full panel of roughly 79,000, 15% have a hit.
Criterion: growth inhibition meeting or surpassing 60%. Met: satisfied. Not met: not satisfied.

- COMPOUND: "C#CC(C)(C)Nc1c2ccccc2nc2ccccc12"
  DISCRETE_LABEL: "satisfied"

Test whether the compound CCN(CC)CCOC(=O)c1ccc(N=Nc2cc(Cl)c(C)cc2O)cc1 records growth inhibition of 60% or higher. satisfied

Is reported growth inhibition greater than or equal to 60% here: CCOC(=O)c1csc(/C=C/c2cc(OC)c(OC)c(OC)c2)n1 not satisfied

Form field: growth inhibition at least 60%? Entry: Cc1c[n+](=O)c2ccccc2n1[O-] not satisfied

---

Measured growth inhibition, listed per entry.
TEST_DETAILS: NCI Yeast Anticancer Drug Screen. Data for the rad50 strain (AID 155);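 also: 0% = growth of vehicle-only cultures of the same strain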
TEST_CONDITIONS: S. cerevisiae rad50 strain growth inhibition; at 50.0 µM; hits give high values
About 79,000 compounds went through this panel and 15% of them were active in at least one assay; those are over-represented in the sample as a whole. Activity calls are given as the source filed them. Rule as the data show it: active = growth inhibition above about 70%; inactive = the rest.

Take a look at these entries with their results.
- COMPOUND: "O=C(O)Cc1ccccc1CCc1ccccc1Cl"
  PROPERTY_LABEL: "growth inhibition"
  RESULT: "85.2% (active)"
- COMPOUND: "O=C(O)c1ccccc1Cc1ccc2c(c1)Cc1ccccc1-2"
  PROPERTY_LABEL: "growth inhibition"
  RESULT: "62.5% (inactive)"
- COMPOUND: "COc1ccc(C2SCC(=O)N2c2nncs2)cc1 (stereo not drawn)"
  PROPERTY_LABEL: "growth inhibition"
  RESULT: "50.1% (inactive)"
- COMPOUND: "CC1CN(CC(O)c2ccc(Br)cc2)CC(C)O1 (stereo not drawn)"
  PROPERTY_LABEL: "growth inhibition"
  RESULT: "58.5% (inactive)"
- COMPOUND: "CCOC(=O)C(C(=O)OCC)C(=O)c1ccccc1C(=O)c1ccccc1"
  PROPERTY_LABEL: "growth inhibition"
  RESULT: "60.8% (inactive)"

Which growth inhibition value is on record for O=C([O-])c1ccc([I+]c2ccccc2)cc1 ? 57% (inactive)

For the compound ClCc1nnc2n1-c1ccc(Cl)cc1SC2 , what growth inhibition is on record? 12.4% (inactive)

Dear colleague, I am looking for the recorded growth inhibition of the following compound: CCC[CH2][Sn]([CH2]CCC)([O]C(=O)c1cccc(F)c1)[O]C(=O)c1cccc(F)c1 51.5% (inactive)

Report growth inhibition for O=C(C=P(c1ccccc1)(c1ccccc1)c1ccccc1)CC(=S)CC(=O)C=P(c1ccccc1)(c1ccccc1)c1ccccc1 please. 97.3% (active)

So what's the measured growth inhibition for this one? Cc1ccc(-n2cc(-c3ccc(Cl)cc3)c3c(N)ncnc32)cc1 97.1% (active)

// lookup growth inhibition for CCCCCCCCCCCCCCNCc1ccccc1 98.8% (active)

Name the reported growth inhibition value associated with the compound CCOC(=O)C(C)(c1c(C)[nH]c2ccccc12)c1c(C)[nH]c2ccccc12 94.8% (active)

Fill in: growth inhibition of CNC(=O)N/N=C/c1ccc([N+](=O)[O-])o1 is ___ 65.2% (inactive)

Entry Clc1ccc(-c2nc3ccc(Cl)cc3[nH]2)cc1 : reported growth inhibition = ? 76.8% (active)

Request the reported growth inhibition associated with CCCCCc1ccc2cc(C(=O)O)[nH]c2c1 96.7% (active)
